Target: CDK4 CCND1 (human) (UniProt P11802+P24385)
Sequence (P11802 whole entry, looked up): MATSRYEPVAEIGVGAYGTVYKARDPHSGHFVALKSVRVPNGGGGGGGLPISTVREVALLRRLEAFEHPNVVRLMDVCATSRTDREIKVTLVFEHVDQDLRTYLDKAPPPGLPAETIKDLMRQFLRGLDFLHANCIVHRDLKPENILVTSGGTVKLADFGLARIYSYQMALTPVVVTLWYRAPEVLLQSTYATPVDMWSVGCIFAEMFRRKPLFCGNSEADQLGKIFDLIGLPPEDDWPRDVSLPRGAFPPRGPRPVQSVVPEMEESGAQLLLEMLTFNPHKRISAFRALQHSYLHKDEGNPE
Sequence (P24385 whole entry, looked up): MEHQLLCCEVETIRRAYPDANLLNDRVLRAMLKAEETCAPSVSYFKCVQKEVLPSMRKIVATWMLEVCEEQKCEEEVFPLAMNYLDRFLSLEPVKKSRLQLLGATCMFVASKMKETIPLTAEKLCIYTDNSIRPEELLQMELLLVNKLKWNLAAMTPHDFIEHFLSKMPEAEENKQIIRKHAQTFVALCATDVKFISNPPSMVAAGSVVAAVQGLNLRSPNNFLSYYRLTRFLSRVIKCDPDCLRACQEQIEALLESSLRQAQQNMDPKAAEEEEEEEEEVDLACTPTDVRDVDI
Experiment: KINOMEscan competition binding
Conditions: compound 10.0 µM
We begin with a simple list: items and their reported kinase still bound, per cent of control.
Return type: number; implicit unit %.

[
  {
    "COMPOUND": "N#Cc1cc(-c2ccnc(Nc3ccc(-n4cnc(-c5cccnc5)n4)cc3)n2)cc(N2CCOCC2)c1",
    "kinase still bound, per cent of control [%]": 100
  },
  {
    "COMPOUND": "COc1cc2c(Nc3ccc(NC(=O)c4ccccc4)cc3)ncnc2cc1OCCCN1CCOCC1",
    "kinase still bound, per cent of control [%]": 93
  }
]

Please find the next compound below.
Asked: I would be grateful if you could share the reported kinase still bound, per cent of control for `O=c1[nH]c2ccccc2n1C1CCN(Cc2ccc(-c3nc4cc5[nH]cnc5cc4nc3-c3ccccc3)cc2)CC1` .
Given back: 100

---

Parameter: kinase still bound, per cent of control. Scope: all listed entries.
Molecular target: UniProt P31152
Sequence (P31152 whole entry, looked up): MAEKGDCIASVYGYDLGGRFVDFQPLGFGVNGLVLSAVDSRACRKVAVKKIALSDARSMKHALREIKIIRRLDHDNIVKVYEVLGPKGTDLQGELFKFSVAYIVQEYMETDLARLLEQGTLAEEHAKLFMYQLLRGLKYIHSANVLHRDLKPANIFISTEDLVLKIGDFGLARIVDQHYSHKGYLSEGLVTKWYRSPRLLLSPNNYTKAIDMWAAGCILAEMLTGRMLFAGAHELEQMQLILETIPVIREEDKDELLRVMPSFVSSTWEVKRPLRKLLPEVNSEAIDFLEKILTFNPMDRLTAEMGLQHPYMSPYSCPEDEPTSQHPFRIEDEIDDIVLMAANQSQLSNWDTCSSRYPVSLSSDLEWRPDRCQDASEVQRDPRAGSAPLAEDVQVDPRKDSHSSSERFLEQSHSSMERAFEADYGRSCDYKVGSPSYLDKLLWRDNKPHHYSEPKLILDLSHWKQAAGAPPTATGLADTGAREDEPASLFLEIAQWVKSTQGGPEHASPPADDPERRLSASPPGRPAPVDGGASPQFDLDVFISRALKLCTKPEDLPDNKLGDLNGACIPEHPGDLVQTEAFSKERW
Experiment: KINOMEscan competition binding
Conditions: compound 10.0 µM
Value and unit, in that order.

Asked: Data request, read-out kinase still bound, per cent of control, for `O=c1[nH]c2ccccc2n1C1CCN(Cc2ccc(-c3nc4cc5[nH]cnc5cc4nc3-c3ccccc3)cc2)CC1`
Given back: 100%

Asked: Then this molecule: `N#C/C(=C1/Nc2ccccc2S1)c1ccnc(NCCc2cccnc2)n1`
Given back: 96%

Asked: What about this molecule? COc1cc(C)c(Sc2cnc(NC(=O)c3ccc(CNC(C)C(C)C)cc3)s2)cc1C(=O)N1CCN(C(C)=O)CC1 (centres undefined)
Given back: 100%

Asked: Consider next the molecule `COc1ccc(N(C(=O)Oc2cc(C(=O)Nc3cccc(C(F)(F)F)c3)ccc2C)c2ccnc(Nc3ccc(N4CCN(C)CC4)cc3)n2)c(OC)c1` in the same way.
Given back: 100%

Asked: Queued: `CNC(=O)Nc1ccc(-c2nc(N3CC4CCC(C3)O4)c3cnn(C4CCC5(CC4)OCCO5)c3n2)cc1`
Given back: 100%

Asked: Proceed to `C=CC(=O)Nc1ccc(C(=O)c2sc(Nc3ccc(N4CCN(C)CC4)cc3OC)nc2N)cc1`
Given back: 100%

---

Molecular target: MAP2K6 (human) (UniProt P52564)
Sequence (P52564 whole entry, looked up): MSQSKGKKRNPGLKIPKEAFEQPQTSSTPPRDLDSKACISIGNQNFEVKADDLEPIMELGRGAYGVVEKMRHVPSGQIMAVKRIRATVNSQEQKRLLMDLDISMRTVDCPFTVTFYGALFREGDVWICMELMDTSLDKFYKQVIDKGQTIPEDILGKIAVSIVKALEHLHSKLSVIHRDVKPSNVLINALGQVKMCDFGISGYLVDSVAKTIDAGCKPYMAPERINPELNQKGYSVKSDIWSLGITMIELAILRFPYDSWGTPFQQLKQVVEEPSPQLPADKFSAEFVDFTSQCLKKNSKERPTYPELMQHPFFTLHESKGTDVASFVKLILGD
Experiment: KINOMEscan competition binding
Conditions: compound 10.0 µM
MEASURED METRIC: kinase still bound, per cent of control (%)
Report only the number, with the unit % understood.

Reference set, count: 4
[
  {
    "COMPOUND": "COc1cc(C)c(Sc2cnc(NC(=O)c3ccc(CNC(C)C(C)C)cc3)s2)cc1C(=O)N1CCN(C(C)=O)CC1 (stereo not given)",
    "MEASUREMENT UNIT": "%",
    "kinase still bound, per cent of control": 100
  },
  {
    "COMPOUND": "C=CC(=O)Nc1ccc(C(=O)c2sc(Nc3ccc(N4CCN(C)CC4)cc3OC)nc2N)cc1",
    "MEASUREMENT UNIT": "%",
    "kinase still bound, per cent of control": 96
  },
  {
    "COMPOUND": "CCN1CCN(Cc2ccc(NC(=O)c3ccc(C)c(/C=C/c4cnc5[nH]ccc5c4OC)c3)cc2C(F)(F)F)CC1",
    "MEASUREMENT UNIT": "%",
    "kinase still bound, per cent of control": 79
  },
  {
    "COMPOUND": "N#C/C(=C1/Nc2ccccc2S1)c1ccnc(NCCc2cccnc2)n1",
    "MEASUREMENT UNIT": "%",
    "kinase still bound, per cent of control": 64
  }
]

Asked: Returns the measured kinase still bound, per cent of control for the input compound. Input: `CNC(=O)Nc1ccc(-c2nc(N3CC4CCC(C3)O4)c3cnn(C4CCC5(CC4)OCCO5)c3n2)cc1`
Given back: 95

Asked: Also need `CCOc1cc(N2CCC(O)CC2)ccc1Nc1ncc2c(n1)N(C)c1ccccc1C(=O)N2C` , thanks.
Given back: 100

---

This listing pairs compounds with measured kinase still bound, per cent of control.
Molecular target: MAPK1 (human) (UniProt P28482)
Sequence (P28482 whole entry, looked up): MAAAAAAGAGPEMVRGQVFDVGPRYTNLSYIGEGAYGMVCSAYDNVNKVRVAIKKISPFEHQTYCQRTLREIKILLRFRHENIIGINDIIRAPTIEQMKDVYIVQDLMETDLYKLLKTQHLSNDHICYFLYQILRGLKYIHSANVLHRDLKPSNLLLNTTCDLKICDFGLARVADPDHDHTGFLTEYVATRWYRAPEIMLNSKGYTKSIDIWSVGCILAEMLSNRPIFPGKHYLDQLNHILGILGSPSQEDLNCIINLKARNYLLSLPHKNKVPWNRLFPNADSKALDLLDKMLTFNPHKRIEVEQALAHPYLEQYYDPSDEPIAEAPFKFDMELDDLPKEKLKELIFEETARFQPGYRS
Assay: KINOMEscan competition binding
Conditions: compound 10.0 µM
Report the figure in % without appending any unit label.

Take a look at these entries with their results.
[
  {
    "COMPOUND": "CNC(=O)Nc1ccc(-c2nc(N3CC4CCC(C3)O4)c3cnn(C4CCC5(CC4)OCCO5)c3n2)cc1",
    "MEASURED NUMBER": 87
  },
  {
    "COMPOUND": "CCN1CCN(Cc2ccc(NC(=O)c3ccc(C)c(/C=C/c4cnc5[nH]ccc5c4OC)c3)cc2C(F)(F)F)CC1",
    "MEASURED NUMBER": 100
  },
  {
    "COMPOUND": "CCc1nc(-c2cccc(C)c2)c(-c2ccnc(NC(=O)c3ccccc3)c2)s1",
    "MEASURED NUMBER": 96
  },
  {
    "COMPOUND": "COc1cc2c(Nc3ccc(NC(=O)c4ccccc4)cc3)ncnc2cc1OCCCN1CCOCC1",
    "MEASURED NUMBER": 72
  },
  {
    "COMPOUND": "COc1cc(C)c(Sc2cnc(NC(=O)c3ccc(CNC(C)C(C)C)cc3)s2)cc1C(=O)N1CCN(C(C)=O)CC1 (stereo not drawn)",
    "MEASURED NUMBER": 100
  },
  {
    "COMPOUND": "CC1=C(C(=O)Nc2cc3cn[nH]c3cc2F)C(c2ccc(C(F)(F)F)cc2)CC(=O)N1 (stereo not drawn)",
    "MEASURED NUMBER": 50
  }
]

Asked: Entry under review: `C=CC(=O)Nc1ccc(C(=O)c2sc(Nc3ccc(N4CCN(C)CC4)cc3OC)nc2N)cc1` . Reported kinase still bound, per cent of control?
Given back: 100

Asked: Another compound: `CCOc1cc(N2CCC(O)CC2)ccc1Nc1ncc2c(n1)N(C)c1ccccc1C(=O)N2C`
Given back: 100

---

Biological target: RPS6KA6 KD2 (human) (UniProt Q9UK32)
Sequence (Q9UK32 whole entry, looked up): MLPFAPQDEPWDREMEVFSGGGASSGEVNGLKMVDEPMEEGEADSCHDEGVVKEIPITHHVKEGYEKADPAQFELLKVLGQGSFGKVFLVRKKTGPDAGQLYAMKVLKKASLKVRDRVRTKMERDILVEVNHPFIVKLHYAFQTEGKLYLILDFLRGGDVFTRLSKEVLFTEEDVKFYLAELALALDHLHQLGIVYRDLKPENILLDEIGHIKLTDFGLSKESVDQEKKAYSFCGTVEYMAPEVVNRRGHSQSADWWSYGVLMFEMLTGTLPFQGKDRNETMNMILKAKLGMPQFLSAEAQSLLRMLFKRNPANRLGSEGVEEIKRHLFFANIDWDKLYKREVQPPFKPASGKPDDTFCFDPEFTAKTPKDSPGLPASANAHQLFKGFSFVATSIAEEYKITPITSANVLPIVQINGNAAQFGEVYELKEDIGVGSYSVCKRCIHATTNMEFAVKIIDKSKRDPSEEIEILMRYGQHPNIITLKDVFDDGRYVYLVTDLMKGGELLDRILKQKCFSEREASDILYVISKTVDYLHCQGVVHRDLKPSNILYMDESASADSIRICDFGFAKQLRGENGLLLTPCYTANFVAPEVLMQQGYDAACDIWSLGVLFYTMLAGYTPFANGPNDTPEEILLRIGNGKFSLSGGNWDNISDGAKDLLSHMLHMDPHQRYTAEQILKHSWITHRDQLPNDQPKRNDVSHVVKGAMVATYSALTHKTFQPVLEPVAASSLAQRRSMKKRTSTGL
Experiment: KINOMEscan competition binding
Settings: compound 10.0 µM
Consider the following compounds and their measured kinase still bound, per cent of control readings.
A number alone suffices; assume %.

[
  {
    "COMPOUND": "COc1ccc(N(C(=O)Oc2cc(C(=O)Nc3cccc(C(F)(F)F)c3)ccc2C)c2ccnc(Nc3ccc(N4CCN(C)CC4)cc3)n2)c(OC)c1",
    "MEASURED METRIC": "kinase still bound, per cent of control",
    "MEASUREMENT UNIT": "%",
    "MEASURED NUMBER": 100
  }
]

Asked: Field request: kinase still bound, per cent of control | item: `CCN1CCN(Cc2ccc(NC(=O)c3ccc(C)c(/C=C/c4cnc5[nH]ccc5c4OC)c3)cc2C(F)(F)F)CC1`
Given back: 15

Asked: Please give the result for `CCOc1cc(N2CCC(O)CC2)ccc1Nc1ncc2c(n1)N(C)c1ccccc1C(=O)N2C` too.
Given back: 31

Asked: Proceed to `COc1cc2c(Nc3ccc(NC(=O)c4ccccc4)cc3)ncnc2cc1OCCCN1CCOCC1`
Given back: 71

Asked: Try `N#Cc1cc(-c2ccnc(Nc3ccc(-n4cnc(-c5cccnc5)n4)cc3)n2)cc(N2CCOCC2)c1` next.
Given back: 88

Asked: Please give the result for `Cc1cn(-c2cc(C(=O)Nc3ccc(C)c(NC(=O)c4ccno4)c3)cc(C(F)(F)F)c2)cn1` too.
Given back: 100

Asked: Next record, please: `C=CC(=O)Nc1ccc(C(=O)c2sc(Nc3ccc(N4CCN(C)CC4)cc3OC)nc2N)cc1`
Given back: 0.7

Asked: Same lookup for `CCCS(=O)(=O)Nc1ccc(F)c(C(=O)c2c[nH]c3ncc(Cl)cc23)c1F` , please.
Given back: 98

Asked: Similarly, CC1=C(C(=O)Nc2cc3cn[nH]c3cc2F)C(c2ccc(C(F)(F)F)cc2)CC(=O)N1 (centres undefined) ?
Given back: 85

---

Reported kinase still bound, per cent of control values follow for various molecules
Biological target: CDKL2 (human) (UniProt Q92772)
Sequence (Q92772 whole entry, looked up): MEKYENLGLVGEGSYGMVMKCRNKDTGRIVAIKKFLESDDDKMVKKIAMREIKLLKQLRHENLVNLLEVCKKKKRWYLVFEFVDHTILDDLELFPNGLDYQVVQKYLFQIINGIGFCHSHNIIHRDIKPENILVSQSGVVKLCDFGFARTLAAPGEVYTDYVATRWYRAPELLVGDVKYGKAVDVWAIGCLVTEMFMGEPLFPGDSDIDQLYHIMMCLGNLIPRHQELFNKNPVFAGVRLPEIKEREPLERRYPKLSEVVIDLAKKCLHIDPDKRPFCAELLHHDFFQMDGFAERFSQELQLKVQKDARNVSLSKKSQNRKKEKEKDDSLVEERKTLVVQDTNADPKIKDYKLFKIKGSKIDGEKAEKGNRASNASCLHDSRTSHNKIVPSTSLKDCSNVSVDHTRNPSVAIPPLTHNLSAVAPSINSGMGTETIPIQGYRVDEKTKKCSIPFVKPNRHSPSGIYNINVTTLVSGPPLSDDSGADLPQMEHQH
Assay: KINOMEscan competition binding
Conditions: compound 10.0 µM
Note: state the figure and append the unit.

Asked: Return reported kinase still bound, per cent of control; argument: `CCN1CCN(Cc2ccc(NC(=O)c3ccc(C)c(/C=C/c4cnc5[nH]ccc5c4OC)c3)cc2C(F)(F)F)CC1`
Given back: 1.6%

---

Molecular target: PIK3CG (human) (UniProt P48736)
Sequence (P48736 whole entry, looked up): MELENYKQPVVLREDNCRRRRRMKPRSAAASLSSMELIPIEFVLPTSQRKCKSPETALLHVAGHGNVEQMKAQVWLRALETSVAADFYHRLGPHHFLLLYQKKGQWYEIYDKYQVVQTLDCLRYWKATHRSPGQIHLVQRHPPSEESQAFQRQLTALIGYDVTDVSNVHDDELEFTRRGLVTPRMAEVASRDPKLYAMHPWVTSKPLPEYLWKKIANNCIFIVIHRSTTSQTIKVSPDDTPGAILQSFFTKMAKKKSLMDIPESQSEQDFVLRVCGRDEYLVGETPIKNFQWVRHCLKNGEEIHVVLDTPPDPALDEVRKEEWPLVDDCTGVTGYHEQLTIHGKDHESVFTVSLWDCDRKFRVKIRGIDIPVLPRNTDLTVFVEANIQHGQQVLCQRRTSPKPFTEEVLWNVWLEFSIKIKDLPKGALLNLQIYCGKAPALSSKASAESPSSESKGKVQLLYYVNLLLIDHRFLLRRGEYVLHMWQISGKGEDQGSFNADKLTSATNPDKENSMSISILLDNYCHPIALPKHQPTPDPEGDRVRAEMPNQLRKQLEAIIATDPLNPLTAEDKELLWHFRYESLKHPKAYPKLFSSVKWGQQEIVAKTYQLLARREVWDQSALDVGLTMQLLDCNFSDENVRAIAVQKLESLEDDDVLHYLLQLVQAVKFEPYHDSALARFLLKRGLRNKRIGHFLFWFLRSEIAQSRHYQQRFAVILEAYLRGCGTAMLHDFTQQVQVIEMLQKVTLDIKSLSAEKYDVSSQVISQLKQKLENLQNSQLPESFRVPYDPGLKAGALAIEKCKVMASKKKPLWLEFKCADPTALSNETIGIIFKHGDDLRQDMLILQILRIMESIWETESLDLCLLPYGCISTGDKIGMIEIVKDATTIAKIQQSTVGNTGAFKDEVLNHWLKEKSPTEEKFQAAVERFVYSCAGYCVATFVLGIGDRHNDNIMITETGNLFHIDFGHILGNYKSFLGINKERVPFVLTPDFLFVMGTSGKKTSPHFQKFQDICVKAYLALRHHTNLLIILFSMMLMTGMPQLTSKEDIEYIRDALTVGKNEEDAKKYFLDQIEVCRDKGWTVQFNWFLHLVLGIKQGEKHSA
Assay: KINOMEscan competition binding
Details: compound 10.0 µM
MEASURED METRIC: kinase still bound, per cent of control (%)
State the answer as a number, implicitly in %.

Consider the following illustrative entries.
[
  {
    "MOLECULE": "CC(=O)c1c(C)c2cnc(Nc3ccc(N4CCNCC4)cn3)nc2n(C2CCCC2)c1=O",
    "kinase still bound, per cent of control / %": 6.8
  },
  {
    "MOLECULE": "CCN(CCO)CCCOc1ccc2c(Nc3cc(CC(=O)Nc4cccc(F)c4)[nH]n3)ncnc2c1",
    "kinase still bound, per cent of control / %": 100
  },
  {
    "MOLECULE": "COc1cc2ncnc(Nc3cccc(Cl)c3)c2cc1OC",
    "kinase still bound, per cent of control / %": 44
  },
  {
    "MOLECULE": "C=CC(=O)Nc1ccc(C(=O)c2sc(Nc3ccc(N4CCN(C)CC4)cc3OC)nc2N)cc1",
    "kinase still bound, per cent of control / %": 96
  },
  {
    "MOLECULE": "COc1cc2c(Nc3ccc(NC(=O)c4ccccc4)cc3)ncnc2cc1OCCCN1CCOCC1",
    "kinase still bound, per cent of control / %": 100
  }
]

Asked: Entry `CCN1CCN(Cc2ccc(NC(=O)c3ccc(C)c(/C=C/c4cnc5[nH]ccc5c4OC)c3)cc2C(F)(F)F)CC1` : reported kinase still bound, per cent of control = ?
Given back: 96

Asked: Then what about the molecule `CCOc1cc(N2CCC(O)CC2)ccc1Nc1ncc2c(n1)N(C)c1ccccc1C(=O)N2C` ?
Given back: 100

Asked: Same question for `CCCS(=O)(=O)Nc1ccc(F)c(C(=O)c2c[nH]c3ncc(Cl)cc23)c1F` please.
Given back: 83

Asked: CC1=C(C(=O)Nc2cc3cn[nH]c3cc2F)C(c2ccc(C(F)(F)F)cc2)CC(=O)N1 (centres undefined) , same question.
Given back: 88
